Attribution: paper PMC8649585

# TEST_SYSTEM: FGFR4 WT (Homo sapiens, UniProt P22455)
# Sequence (P22455 22-802): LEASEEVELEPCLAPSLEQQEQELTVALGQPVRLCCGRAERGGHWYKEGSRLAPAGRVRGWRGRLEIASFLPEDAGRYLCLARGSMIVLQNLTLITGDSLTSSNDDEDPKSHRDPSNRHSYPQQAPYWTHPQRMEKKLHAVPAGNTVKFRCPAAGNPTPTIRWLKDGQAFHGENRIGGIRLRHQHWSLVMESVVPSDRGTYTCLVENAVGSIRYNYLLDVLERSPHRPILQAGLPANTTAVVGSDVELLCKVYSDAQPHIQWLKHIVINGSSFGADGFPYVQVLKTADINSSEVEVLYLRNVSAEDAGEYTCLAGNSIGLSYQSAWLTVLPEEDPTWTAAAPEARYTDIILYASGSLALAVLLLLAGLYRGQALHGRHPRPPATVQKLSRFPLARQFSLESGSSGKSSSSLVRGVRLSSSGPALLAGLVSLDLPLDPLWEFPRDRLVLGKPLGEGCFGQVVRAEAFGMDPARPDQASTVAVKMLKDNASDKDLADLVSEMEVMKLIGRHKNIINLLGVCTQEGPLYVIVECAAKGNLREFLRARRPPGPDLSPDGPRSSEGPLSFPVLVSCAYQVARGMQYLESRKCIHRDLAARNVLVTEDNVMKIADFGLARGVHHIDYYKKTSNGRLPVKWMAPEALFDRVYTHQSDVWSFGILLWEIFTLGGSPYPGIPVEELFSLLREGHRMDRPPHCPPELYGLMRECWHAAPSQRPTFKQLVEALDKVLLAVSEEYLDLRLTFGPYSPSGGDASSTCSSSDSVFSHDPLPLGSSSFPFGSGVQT
# METHOD_NOTES: Radiometric biochemical kinase assay
# CONDITION_PARAMETERS: read-out: IC50 against FGFR4; wtFGFR4
METRIC: pIC50
Worth noting: pIC50 values are minus log10 of concentrations stated in mol/L.

Determine from records and report pIC50 for Cc1ccc(Nc2ncc3c(n2)N(C)C(=O)N(c2cc(NC(=O)c4cccc(C(F)(F)F)c4)ccc2C)C3)cn1 [GNF-7] 8.38

----------
# TEST_SYSTEM: UniProt:P21802
# Sequence (P21802 22-821): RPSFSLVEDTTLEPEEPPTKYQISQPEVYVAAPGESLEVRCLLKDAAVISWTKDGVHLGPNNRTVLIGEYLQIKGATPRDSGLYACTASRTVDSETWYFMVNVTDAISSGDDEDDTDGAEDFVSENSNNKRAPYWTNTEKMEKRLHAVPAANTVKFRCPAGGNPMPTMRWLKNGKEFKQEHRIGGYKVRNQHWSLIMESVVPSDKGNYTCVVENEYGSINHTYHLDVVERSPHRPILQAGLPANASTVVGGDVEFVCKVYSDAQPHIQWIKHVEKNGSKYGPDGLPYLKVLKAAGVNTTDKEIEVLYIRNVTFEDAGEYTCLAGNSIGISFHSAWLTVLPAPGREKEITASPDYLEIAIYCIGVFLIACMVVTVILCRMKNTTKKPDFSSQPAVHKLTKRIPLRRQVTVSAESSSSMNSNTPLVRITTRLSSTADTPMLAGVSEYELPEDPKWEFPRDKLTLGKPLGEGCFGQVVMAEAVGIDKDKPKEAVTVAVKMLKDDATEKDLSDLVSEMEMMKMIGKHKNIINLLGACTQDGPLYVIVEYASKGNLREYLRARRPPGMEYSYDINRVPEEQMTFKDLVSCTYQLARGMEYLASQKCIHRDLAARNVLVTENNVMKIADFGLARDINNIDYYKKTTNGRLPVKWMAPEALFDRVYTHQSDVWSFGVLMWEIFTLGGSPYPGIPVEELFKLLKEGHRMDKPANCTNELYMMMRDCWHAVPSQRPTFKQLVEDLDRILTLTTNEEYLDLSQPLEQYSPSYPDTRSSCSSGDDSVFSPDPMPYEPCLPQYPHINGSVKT
METRIC: pIC50
Worth noting: pIC50 values are minus log10 of concentrations stated in mol/L.

Determine from records and report pIC50 for Cc1ccc(Nc2ncc3c(n2)N(C)C(=O)N(c2cc(NC(=O)c4cccc(C(F)(F)F)c4)ccc2C)C3)cn1 [GNF-7] 7.70
